IC50 by entry:
experimentDescription: Inhibition of HIV1 SF162 gp120 binding to CD4 assessed as inhibition of CD4 expressing african green monkey BSC1 cells fusion to CCR5 expressing mouse NIH3T3 cells after 2.5 hrs by beta-galactosidase assay
Assay type: cell-based, Human immunodeficiency virus 1
// return numeric value only (unit: µM, not printed)

Would you please look over these solved cases?
- CC[C@H]1CCCC[C@@]2(C[C@@H]3CC[C@@H]4[C@H](C(=O)OCCCCCCCCCCCCCCCC(=O)N(CCCN)C[C@@H](O)CCN)[C@]5(CCC[C@@H](C)O5)N=C(N2)N34)O1: 1
- CC[C@H]1C=CCC[C@@]2(C[C@@H]3CC[C@@H]4[C@H](C(=O)OCCCCCCCCCCCCCCCC5=NCCCN5CC(O)CCN)[C@]5(CCC[C@@H](C)O5)N=C(N2)N34)O1 (some centres undefined): 1
- CC[C@H]1C=CCC[C@@]2(C[C@@H]3CC[C@@H]4[C@H](C(=O)OCCCCCCCCCCCCCCCCCC(=O)N(CCCN)CCCC(N)=O)[C@]5(CCC[C@@H](C)O5)N=C(N2)N34)O1: 1

// recorded IC50 for CCCCCCCCCCCc1nc(=N)n2c(c1C(=O)OCCCCNC(=N)N)CCC2 [DEHYDROCRAMBINE A] : 35
